- Assay Explanation: Cellular viability qHTS for adrenocortical cancer (ACC) cell line NCI-H295R (AID 1963990); note: nearly all actives have a fitted effect of over 60% in size
- Condition Label: CellTiter-Glo ATP luminescence, 48 h; series mostly up to 46.1 µM
Records with an inconclusive call do not appear. Calls of active or inactive are those of the source. Calls come from the whole dose curve; as a rule, active = well fitted cell-killing curve with a large enough effect; inconclusive = small, poorly fitted or top-dose-only effect; inactive = flat fitted curve, though single readings scatter.
Possible outcomes: active, inactive

INSERT INTO assay_data (compound, label_value) VALUES
  ('CC1(C)C(N(O)C(=O)Nc2ccc(Cl)cc2)N(c2ccc(Cl)cc2)C(=O)N1CC(=O)N/N=C/C=C/c1ccc([N+](=O)[O-])o1 (stereo unspecified)', 'active'),
  ('CCC(=O)Nc1ccc(O)cc1', 'inactive'),
  ('CCCCNc1cc(C(=O)O)cc(S(N)(=O)=O)c1Oc1ccccc1', 'inactive'),
  ('CC(C)=CCC/C(C)=C/CC/C(C)=C/CCC(=O)OC/C=C(\C)CCC=C(C)C', 'inactive'),
  ('Oc1cccc(O)c1', 'inactive'),
  ('COC[C@@H](c1ccc(C(F)(F)F)cc1)N1CCN(C2(C)CCN(C(=O)c3c(C)ncnc3C)CC2)C[C@@H]1C', 'inactive'),
  ('CC(=O)Oc1cccc2c1C(=O)c1c(OC(C)=O)cc(C(=O)O)cc1C2=O', 'inactive'),
  ('CC(C)(C)NC(=O)c1cncn1C1CCN(c2ccc(-c3nnc(C(F)(F)F)o3)cn2)CC1', 'active'),
  ('CCCCCCCCCCCCCCCC[N+](C)(C)Cc1ccccc1', 'active'),
  ('CCNC(=O)Nc1ncc(-c2cc(-c3c(C)cc(OC)cc3C)nc(-c3cnccn3)n2)s1', 'inactive'),
  ('c1cc(-c2cnn3cc(-c4ccc(OCCN5CCCCC5)cc4)cnc23)ccn1', 'active'),
  ('Cc1cn([C@H]2C[C@H](F)[C@@H](CO)O2)c(=O)[nH]c1=O', 'inactive'),
  ('CCC(=O)NCC[C@@H]1CCc2ccc3c(c21)CCO3', 'inactive'),
  ('CN(C)Cc1ccc(S(=O)(=O)n2ccc(/C=C/C(=O)NO)c2)cc1', 'active'),
  ('CCN1CCN(Cc2ccc(-c3cc4c(N[C@H](C)c5ccccc5)ncnc4[nH]3)cc2)CC1', 'active'),
  ('COC(=O)c1ccc(O)cc1', 'inactive'),
  ('CN[C@@H]1[C@H](O)[C@H](NC)[C@H]2O[C@@]3(O)C(=O)C[C@@H](C)O[C@H]3O[C@@H]2[C@H]1O', 'inactive'),
  ('C[C@@H]1C[C@H]2[C@@H]3CCC4=CC(=O)C=C[C@]4(C)[C@@]3(F)[C@@H](O)C[C@]2(C)[C@H]1C(=O)CO', 'inactive'),
  ('CCCCC1=NC2(CCCC2)C(=O)N1Cc1ccc(-c2ccccc2-c2nn[nH]n2)cc1', 'inactive'),
  ('CC(C)(C)c1cc(C=O)cc(C(C)(C)C)c1O', 'inactive'),
  ('CN1CCN(c2ccc(-c3cccc(CN4CCOCC4)c3)cc2NC(=O)c2c[nH]c(=O)cc2C(F)(F)F)CC1', 'inactive'),
  ('Oc1ccccc1-c1nnco1', 'inactive'),
  ('Cc1cc(I)ccc1Nc1c(C(=O)NOCC2CC2)cc(F)c(F)c1F', 'active'),
  ('C[C@H](NC(=O)[C@@H](O)c1cc(F)cc(F)c1)C(=O)N[C@@H]1C(=O)N(C)c2ccccc2-c2ccccc21', 'inactive'),
  ('O=C1OC(COc2ccccc2[N+](=O)[O-])CC1Cc1ccccc1 (stereo unspecified)', 'inactive'),
  ('N#Cc1ccc(C2CCCc3cncn32)cc1 (stereo unspecified)', 'inactive');

---

- Assay Explanation: Viability qHTS for spleen associated tyrosine kinase inhibitor (SYKi) naive MV4-11 cells (AID 1963823); note: nearly all actives have a fitted effect of over 40% in size; note: potency is the fitted concentration of half-maximal effect
- Condition Label: MV4-11 AML viability, CellTiter-Glo luminescence, 72 h; series mostly up to 45 µM
Results filed as inconclusive are left out. Calls of active or inactive are those of the source. Calls follow the shape of the dose curve; as a rule, active = well fitted cell-killing curve with a large enough effect; inconclusive = small, poorly fitted or top-dose-only effect, or effect the other way; inactive = no such curve, though single readings can be large or run the other way.
Quantity Measured: Potency

INSERT INTO assay_data (compound, measured) VALUES
  ('COc1cc([C@H]2c3cc(O)c(OC)cc3C[C@@H](CO[C@@H]3O[C@H](CO)[C@@H](O)[C@H](O)[C@H]3O)[C@@H]2CO)ccc1O', 'inactive'),
  ('NC(=O)OCC(COC(N)=O)c1ccccc1', 'inactive'),
  ('O=C1Cc2cc(Cl)ccc2N1', 'inactive'),
  ('C=CCc1ccc(O)c(OC)c1', 'inactive'),
  ('CCCCOC(=O)NC(=O)C1c2ccccc2Oc2ccccc21', 'inactive'),
  ('CCn1c(-c2nonc2N)nc2c(C#CCO)ncc(OCCCN)c21', '0.58 µM (active)'),
  ('CC(=O)NC1=NN(C(C)=O)C(C)(c2ccccc2)S1 (stereo not given)', '1.84 µM (active)'),
  ('CCNC(=O)Nc1ccc(-c2nc3c(c(N4CCOC[C@@H]4C)n2)CCN(C2COC2)C3)cc1', '0.934 µM (active)'),
  ('C[C@@H](O[C@H]1OCCN(Cc2n[nH]nc2CN(C)C)[C@H]1c1ccc(F)cc1)c1cc(C(F)(F)F)cc(C(F)(F)F)c1', '10.3 µM (active)'),
  ('C[C@@H]1N=C(N)NC(N(C)C)=N1', 'inactive'),
  ('Cc1coc2c1CC1OC1(C)CCC1OC1(C)C2 (stereo not given)', 'inactive'),
  ('CN1CC[C@@H](c2c(O)cc(O)c3c(=O)cc(-c4ccccc4Cl)oc23)[C@@H](O)C1', '0.525 µM (active)'),
  ('CC(C)CN(CC(=O)N(CCCN1CCCC1=O)CC(N)=O)C(=O)CNCCc1ccccc1F', 'inactive'),
  ('OCC(CO[C@@H]1O[C@H](CO)[C@@H](O)[C@H](O)[C@H]1O)c1ccc2c(c1)OCO2 (stereo not given in full)', 'inactive'),
  ('O=C1c2ccccc2C(=O)c2c1ccc(O)c2O', '9.44 µM (active)'),
  ('CC(C(=O)O)c1ccc2c(c1)Cc1cccnc1O2 (stereo not given)', 'inactive'),
  ('OC1(CN2CCC(COc3noc4cccc(O[C@@H]5CCOC5)c34)CC2)CCOCC1', 'inactive'),
  ('COc1ccc(/C=C/C(=O)O[C@@H]2[C@@H](OC(C)=O)[C@@H](OC(C)=O)[C@H](O[C@H]3[C@@H]4C=CO[C@@H](O[C@@H]5O[C@H](CO)[C@@H](O)[C@H](O)[C@H]5O)[C@@H]4[C@@]4(CO)O[C@@H]34)O[C@H]2C)cc1O', 'inactive'),
  ('COC(=O)C1C(c2ccc(O)cc2)C(C(=O)O)C1c1ccc(O)cc1 (stereo not given)', 'inactive'),
  ('COc1cc(C2CC(=O)Nc3c2cc(Br)c2ccccc32)cc(OC)c1OC (stereo not given)', 'inactive'),
  ('O=C(/C=C/c1ccc(O)cc1)N[C@@H](Cc1ccc(O)cc1)C(=O)O', 'inactive'),
  ('CC1(C)S[C@@H]2[C@H](NC(=O)[C@H](NC(=O)N3CCN(S(C)(=O)=O)C3=O)c3ccccc3)C(=O)N2[C@H]1C(=O)O', 'inactive'),
  ('CC1=CCC(C(C)(C)O[C@@H]2O[C@H](CO[C@@H]3O[C@@H](C)[C@H](O)[C@@H](O)[C@H]3O)[C@@H](O)[C@H](O)[C@H]2O)CC1 (stereo not given in full)', 'inactive'),
  ('CN(C)C(=O)Oc1cccc([N+](C)(C)C)c1', 'inactive'),
  ('CN1C[C@H]2c3ccccc3Oc3ccc(Cl)cc3[C@@H]2C1', '26.6 µM (active)');

---

- Assay Explanation: Quantitative highthroughput screen to assess conditional lethalithy of SEM cells grown in Human Plasma-Like Medium with dialyzed fetal bovine serum (HPLM+ds) (AID 1963882); note: nearly all actives have a fitted effect of over 35% in size
- Condition Label: SEM B-ALL cells in HPLM+ds, CellTiter-Glo viability, 48 h; series mostly up to 45.8 µM
Records with an inconclusive call do not appear. The source made the active and inactive calls. Calls come from the whole dose curve; as a rule, active = well fitted cell-killing curve with a large enough effect; inconclusive = small, poorly fitted or top-dose-only effect, or effect the other way; inactive = no such curve, though single readings can be large or run the other way.
Possible outcomes: active, inactive

INSERT INTO assay_data (compound, label_value) VALUES
  ('Cc1cnc(C(=O)O)c[n+]1[O-]', 'inactive'),
  ('CCN(CC)CCn1c(=O)c(Cc2ccc(OC)cc2)nc2ccccc21', 'inactive'),
  ('CN1CCCN(C(=O)c2cccc(-c3ccc(C=C4C(=O)Nc5ccc(Cl)cc54)o3)c2)CC1', 'active'),
  ('CC1(C)NC(=O)N(c2ccc([N+](=O)[O-])c(C(F)(F)F)c2)C1=O', 'inactive'),
  ('Cn1cc(-c2ccc3nnc(Sc4ccc5ncccc5c4)n3n2)cn1', 'inactive'),
  ('CCCCCCCCCCCCCCCC(=O)OC[C@@H](NC(=O)C(Cl)Cl)[C@H](O)c1ccc([N+](=O)[O-])cc1', 'inactive'),
  ('COc1ccnc(CS(=O)c2nc3ccc(OC(F)F)cc3[nH]2)c1OC (stereo not drawn)', 'inactive'),
  ('COc1cc(C[C@@H](CO)[C@H](CO)Cc2ccc(O)c(OC)c2)ccc1O', 'inactive');

These entries and their values trace back to PubChem BioAssay (NCATS).
